The origin of these recorded values is paper PMC4552634.

Test system: P. falciparum stage V gametocytes
Parameters: BacTiter-Glo ATP luminescence viability of purified stage V gametocytes in 384-well plates, per cent inhibition versus DMSO
Settings: 48 h, 5 µM; inhibitor
Among all 13,000 compounds or so, about 3,200 (25%) showed an effect of 50% or more. This is one part of the list.
Items are presented alongside their recorded % Inhibition.
REPORTED ENDPOINT: % Inhibition (%)

COMPOUND | ASSAYED SYSTEM | RESULT
O=C(c1ccc(-c2ccc(-c3nc4cc(C(F)(F)F)ccc4[nH]3)s2)cc1)N1CCN(CCc2ccccc2)CC1 | P. falciparum stage V gametocytes | 3.451
CCCC1N=C(N)N=C(N)N1c1ccc(C)c(C)c1 (stereo not drawn) | P. falciparum stage V gametocytes | 2.054
COc1ccc(CN2CCN(CCOC(c3ccccc3)c3ccc(Cl)cc3)CC2)c(O)c1 (stereo not drawn) | P. falciparum stage V gametocytes | 28.74
CC(C)c1ccc(-c2nc3ncc(Cl)cc3[nH]2)cc1 | P. falciparum stage V gametocytes | 64.2
CN(C)CCNc1ncnc2c1[nH]c1ccc(Br)cc12 | P. falciparum stage V gametocytes | 3.603
OCC(c1ccccc1)n1c(COc2ccc(Cl)cc2)nc2c(OCCCN3CCCCC3)cccc21 (stereo not drawn) | P. falciparum stage V gametocytes | 103.2
Nc1ncc(-c2cn[nH]c2)cc1-c1nc2ncc(Cl)cc2[nH]1 | P. falciparum stage V gametocytes | -10.74
CC(NC(=O)c1cc(-c2ccccc2)nc2c1cnn2C(C)C)C1CC1 (stereo not drawn) | P. falciparum stage V gametocytes | 5.318
O=C(/C=C/c1ccc(Cl)c(Cl)c1)NC1CCC(CN2CCC(c3nc4ncccc4[nH]3)CC2)CC1 (stereo not drawn) | P. falciparum stage V gametocytes | 5.039
CCN(CCCN1CCCCC1)c1cc(C)nc(Nc2ccc(C)c(Br)c2)n1 | P. falciparum stage V gametocytes | 25.65
C=CCc1cc(Cc2cnc(N)nc2N)cc(CCC)c1O | P. falciparum stage V gametocytes | -56.02
N#Cc1ccc(NC2(C(=O)N3CCN(c4cccc(Cl)c4)CC3)CC2)c2ccccc12 | P. falciparum stage V gametocytes | -25.2
O=C(Nc1ccc(Br)cc1)N(CCN1CCOCC1)CC(O)COc1ccc(Cl)c(F)c1 (stereo not drawn) | P. falciparum stage V gametocytes | -10.57
Cc1nc2c(c(C)nn2C(C)(C)C)c(C)c1CCC(=O)Nc1ccc(CN2CCCC2)cc1 | P. falciparum stage V gametocytes | -7.615
OC(CNCc1ccccc1OCc1ccccc1)c1cc(C(F)(F)F)cc(C(F)(F)F)c1 (stereo not drawn) | P. falciparum stage V gametocytes | -49.16
N#Cc1ccc2nc(-c3cc(-c4cccc(F)c4)cnc3N)[nH]c2c1 | P. falciparum stage V gametocytes | -54.5
CSCCC(C(=O)O)N1C(=O)c2ccccc2C1=O (stereo not drawn) | P. falciparum stage V gametocytes | -25.71
COc1ccc2nccc(NN=Cc3cccnc3)c2c1 | P. falciparum stage V gametocytes | -14.51
COc1ccc(Nc2nccc(NCCNC(=O)c3cc4ccccc4s3)n2)cc1 | P. falciparum stage V gametocytes | 10.68
COc1ccc(C(=O)N2CCN(c3ccc([N+](=O)[O-])c(NC4CC4)c3)CC2)cc1Br | P. falciparum stage V gametocytes | 105.4
CCN(CC)CCCN(CCCN(CC)CC)c1cc(C)nc(Nc2ccc3cc(Br)ccc3c2)n1 | P. falciparum stage V gametocytes | 92.7
Nc1cnc(C#Cc2cc3ncnc(N(CCN4CCOCC4)c4ccc(OCc5cccc(F)c5)c(Cl)c4)c3s2)cn1 | P. falciparum stage V gametocytes | 42.15
O=C(/C=C/c1ccc(Cl)c(Cl)c1)N(Cc1ccccc1)C1CCC(CN2CCC(c3c[nH]c4ccccc34)CC2)CC1 (stereo not drawn) | P. falciparum stage V gametocytes | 26.1
O=C(/C=C/c1ccc([N+](=O)[O-])cc1)N1CCC(NS(=O)(=O)c2ccc(Br)cc2)CC1 | P. falciparum stage V gametocytes | 11.64
CC(C)N1CCC(N(Cc2ccc(-c3ccc(C(F)(F)F)cc3)cc2)C(=O)CCCn2c(CCc3cccc(F)c3F)nc(=O)c3ccccc32)CC1 | P. falciparum stage V gametocytes | 88.07
COc1ccc(C(=O)Nc2ccc3nc(N4CCCCC4)cc(C)c3c2)cc1[N+](=O)[O-] | P. falciparum stage V gametocytes | -8.807
Cc1ccc(/C=C/C(=O)NC2CCC(N3CCC(c4ccccc4C)CC3)CC2)cc1C (stereo not drawn) | P. falciparum stage V gametocytes | -66.55
CC(C)n1ncc2c(C(=O)N3CCCc4ccccc43)cc(-c3ccccc3)nc21 | P. falciparum stage V gametocytes | 70.11
CCc1ccc(-c2nc3cc(NC(=O)c4cc([N+](=O)[O-])cc([N+](=O)[O-])c4)ccc3o2)cc1 | P. falciparum stage V gametocytes | -7.299
CNC(=O)NC1=NC(C)(C)N(OCCCOc2cc(Cl)c(Cl)cc2Cl)C(N)=N1 | P. falciparum stage V gametocytes | 9.937
O=C(c1cccc(Br)c1)N1CCN(c2ccc([N+](=O)[O-])c(NC3CC3)c2)CC1 | P. falciparum stage V gametocytes | 60.19
N=C1SC(=Cc2cn[nH]c2-c2ccc(F)cc2)C(=O)N1c1nccs1 | P. falciparum stage V gametocytes | 2.084
CC(C)n1ncc2c(C(=O)N3CCCCCC3)cc(-c3ccccc3)nc21 | P. falciparum stage V gametocytes | 6.769
